# credit: paper PMC10786891

# System Name: T1, EsCas13d, nuclease-dead (Eubacterium siraeum, UniProt B0MS50, R295A;H300A;R849A;H854A)
# T1 sequence: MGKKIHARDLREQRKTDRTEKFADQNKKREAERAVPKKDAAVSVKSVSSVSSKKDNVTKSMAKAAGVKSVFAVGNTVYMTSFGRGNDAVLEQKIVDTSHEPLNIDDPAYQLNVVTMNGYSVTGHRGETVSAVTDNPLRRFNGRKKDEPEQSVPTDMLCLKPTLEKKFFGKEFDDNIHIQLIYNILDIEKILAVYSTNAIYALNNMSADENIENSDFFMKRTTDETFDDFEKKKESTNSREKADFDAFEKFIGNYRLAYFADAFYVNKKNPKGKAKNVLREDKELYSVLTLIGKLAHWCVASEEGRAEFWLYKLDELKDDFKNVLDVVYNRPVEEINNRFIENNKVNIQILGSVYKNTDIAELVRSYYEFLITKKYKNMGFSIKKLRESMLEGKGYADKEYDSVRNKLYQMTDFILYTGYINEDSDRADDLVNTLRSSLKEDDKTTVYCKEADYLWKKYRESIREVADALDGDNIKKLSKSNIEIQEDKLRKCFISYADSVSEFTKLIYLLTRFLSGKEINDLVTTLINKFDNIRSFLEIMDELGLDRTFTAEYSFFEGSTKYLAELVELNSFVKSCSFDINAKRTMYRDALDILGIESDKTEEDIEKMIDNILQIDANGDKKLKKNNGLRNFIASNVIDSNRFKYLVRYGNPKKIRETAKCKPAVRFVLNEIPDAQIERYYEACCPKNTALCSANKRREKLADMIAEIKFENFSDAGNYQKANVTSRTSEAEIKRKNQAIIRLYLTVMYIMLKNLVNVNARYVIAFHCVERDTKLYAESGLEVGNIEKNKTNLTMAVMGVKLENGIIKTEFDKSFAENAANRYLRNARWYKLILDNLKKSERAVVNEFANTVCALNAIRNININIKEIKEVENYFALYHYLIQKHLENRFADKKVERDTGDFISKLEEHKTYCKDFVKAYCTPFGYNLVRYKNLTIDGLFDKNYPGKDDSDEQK
# Procedure Text: crRNA (strand 1, pre-loaded); Mg2+; 40 mM Tris-HCl pH 7.5, 150 mM NaCl, 6 mM MgCl2, 1 mM DTT, 0.1% Tween-20, 0.2 mg/ml BSA; 25 C; 10 min per concentration, then washed
# Test Context: tags: His6-TwinStrep-SUMO cleaved; N-terminal SNAP kept (SNAP-Surface 488); label: 3' end held by stalled T7 RNA polymerase
Measure: Kd (nM)
Report the value in nM with no unit label.

Some solved entries appear below for comparison.
target 1 insU 3' of 22,insG 3' of 14 (mixed) RNA 1: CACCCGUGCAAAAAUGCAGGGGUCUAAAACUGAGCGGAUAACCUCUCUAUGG RNA 2: GGGAAUGGAUCCACAUCUACGAAUUCGUACUCAUAGAGAGGGUUAUCCGCUCACCGAGAUCGGAAGAGCACACGU : 68
target 1 del19,del22 (mixed) RNA 1: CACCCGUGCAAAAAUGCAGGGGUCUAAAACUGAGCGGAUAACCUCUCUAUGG RNA 2: GGGAAUGGAUCCACAUCUACGAAUUCGUACAAGAGAGGUUAUCCGCUCACCGAGAUCGGAAGAGCACACGU : 56
target 2 MT 5'PFS CGG 3'PFS AGC (mixed) RNA 1: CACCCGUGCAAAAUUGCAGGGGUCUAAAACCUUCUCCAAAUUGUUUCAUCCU RNA 2: GGGAAUGGAUCCACAUCUACGAAUUCCGGAGGAUGAAACAAUUUGGAGAAGAGCAGAUCGGAAGAGCACACGU : 4.7

Okay, now this binder:
Fill in the blank: the reported Kd of target 1 MT 5'PFS GGG 3'PFS UGC (mixed) RNA 1: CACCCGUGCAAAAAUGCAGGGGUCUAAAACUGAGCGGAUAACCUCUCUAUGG RNA 2: GGGAAUGGAUCCACAUCUACGAAUUCGGGCCAUAGAGAGGUUAUCCGCUCAUGCAGAUCGGAAGAGCACACGU is ____.
12.8
